Data origin, for the record: the supplement of paper PMC7877785

- TEST_PROTOCOL: self-splicing fitness, log relative to wild type (ln ratio); higher = more splicing; Tetrahymena group I intron in knt gene, E. coli kanamycin selection, DiMSum; sequences stand for … in CUCUCU…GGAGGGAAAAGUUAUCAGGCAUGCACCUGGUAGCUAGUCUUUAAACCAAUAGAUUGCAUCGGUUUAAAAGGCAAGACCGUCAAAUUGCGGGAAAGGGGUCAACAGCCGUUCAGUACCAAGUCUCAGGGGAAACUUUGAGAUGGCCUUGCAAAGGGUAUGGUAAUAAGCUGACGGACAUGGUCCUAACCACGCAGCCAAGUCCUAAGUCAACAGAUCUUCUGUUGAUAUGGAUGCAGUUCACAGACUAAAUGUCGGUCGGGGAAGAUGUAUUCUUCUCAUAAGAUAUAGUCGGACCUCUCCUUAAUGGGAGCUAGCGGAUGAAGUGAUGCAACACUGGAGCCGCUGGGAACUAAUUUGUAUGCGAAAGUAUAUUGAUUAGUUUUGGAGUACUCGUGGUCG;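 note: selection with 25 µg/mL kanamycin versus none on LB agar overnight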
- STUDY_CONDITIONS: 37 °C
Below: a set of entries, each annotated with reported self-splicing fitness (ln).

Solved cases below.
{"ENTRY_SEQUENCE": "GCAAAGCAAUAUUACGGUAA", "self-splicing fitness (ln)": -0.921}
{"ENTRY_SEQUENCE": "ACCAAGCAAUAUUACGGUAU", "self-splicing fitness (ln)": -0.475}
{"ENTRY_SEQUENCE": "UAAUAGCAAUAUUACGUCCA", "self-splicing fitness (ln)": -0.122}
{"ENTRY_SEQUENCE": "GAGUAGCAAUAUUACGGCUU", "self-splicing fitness (ln)": -1.78}

Next sequence, please.
// self-splicing fitness (ln) lookup, sequence = UUGCAGCAAUAUUACGGAUU , result: -2.91

====

Quick reference: self-splicing fitness (ln) of the listed items.
- TEST_PROTOCOL: self-splicing fitness, log relative to wild type (ln ratio); higher = more splicing; Tetrahymena group I intron in knt gene, E. coli kanamycin selection, DiMSum; sequences stand for … in CUCUCU…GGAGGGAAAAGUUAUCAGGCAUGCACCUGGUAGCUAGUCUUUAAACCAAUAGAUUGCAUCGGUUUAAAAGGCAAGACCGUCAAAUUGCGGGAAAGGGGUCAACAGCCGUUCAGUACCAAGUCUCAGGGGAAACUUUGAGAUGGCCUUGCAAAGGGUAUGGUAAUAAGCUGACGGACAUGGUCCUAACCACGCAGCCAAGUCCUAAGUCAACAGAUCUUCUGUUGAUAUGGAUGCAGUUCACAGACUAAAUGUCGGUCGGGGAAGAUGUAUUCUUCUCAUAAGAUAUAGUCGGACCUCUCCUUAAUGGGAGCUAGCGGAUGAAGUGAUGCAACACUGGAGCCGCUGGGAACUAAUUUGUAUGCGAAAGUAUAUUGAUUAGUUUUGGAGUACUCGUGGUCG
- STUDY_CONDITIONS: 37 °C
Give the figure only, with no unit attached.

Use the examples below as a reference point.
{"ENTRY_SEQUENCE": "CUCUAGCAAUAUUACGAAUG", "self-splicing fitness (ln)": -1.1}
{"ENTRY_SEQUENCE": "GGGGAGCAAUAUUACGGGCC", "self-splicing fitness (ln)": -1.4}
{"ENTRY_SEQUENCE": "CAGGAGCAAUAUUACGGUAU", "self-splicing fitness (ln)": -2.86}
{"ENTRY_SEQUENCE": "ACCCAGCAAUAUUACGUCGG", "self-splicing fitness (ln)": -0.593}

Input AAUCAGCAAUAUUACGGUAG . Output self-splicing fitness (ln): -0.774

# self-splicing fitness (ln) of UACGAGCAAUAUUACGUUUC = -1.69

# self-splicing fitness (ln) of UCGGAGCAAUAUUACGCAAG = -2.23
